Source of measurements: the RNAGym collection of RNA variant scans (doi:10.1126/science.aae0568)

B1: tRNA (parent)
chain: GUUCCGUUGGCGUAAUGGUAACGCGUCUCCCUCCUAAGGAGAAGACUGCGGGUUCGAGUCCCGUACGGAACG

variants of: B1; assay: yeast fitness relative to wild type (ratio to wild type); higher = fitter; tRNA-Arg(CCU), competitive growth, 37 C, YPD
Fewer inactive variants are shown than the library holds.
Here the recorded yeast fitness is given for each entry.
Please give only the number in your answer, with no unit.

Example entries and their recorded answers appear below.
C27G G41A A57G :: 0.746
G18C C30U A45U :: 0.549

## Input In one line, give reported yeast fitness of the entry C11A U19G A36G .
## Output 0.521

## Input Give the value of yeast fitness reported for the following: C4G U32C A45U
## Output 0.537

## Input Quick one: give measured yeast fitness for C5A G6C C30G A42G
## Output 0.606
